Cited source: PubChem BioAssay (NCI)

# Test system: SK-OV-3 ovarian
# Assay notes: NCI tumour cell line growth inhibition, 48 h
Recorded endpoint: TGI

Compound: O=S(O)CCCCCSSc1ccc(Cl)cc1
System: SK-OV-3 ovarian
TGI: > 100 µM

Query string: State its TGI on SK-OV-3 ovarian: `CCN1C[C@@H](C)n2c(c(O)c3c(=O)n(Cc4ccc(F)c(Cl)c4)nc(C(=O)NC)c32)C1=O`
Result string: 9.64 µM

Query string: Under SK-OV-3 ovarian: TGI value of `COC(=O)CSc1cc(Cl)c(C)cc1S(=O)(=O)Nc1n[nH]c(N)n1` ?
Result string: > 10 µM

Query string: Observed TGI on SK-OV-3 ovarian for `c1ccc(C2=Nc3ccccc3N3CNN=C23)cc1` , please.
Result string: > 100 µM

Query string: Missing value: TGI, SK-OV-3 ovarian, entry `Cc1cc(C)c([O-])c(-[n+]2c(-c3ccccc3)cc(-c3ccccc3)cc2-c2ccccc2)c1` . Fill in?
Result string: 27.2 µM

Query string: Lab note: need TGI with SK-OV-3 ovarian for entry `COC(=O)NCCc1[nH]nc2c1C(=O)C=C(Nc1ccccc1OC)C2=O` , please look it up.
Result string: > 100 µM

Query string: What TGI appears in the records for this compound with SK-OV-3 ovarian? COc1cc(C2C=C(C)N=C3SC=C(C)N32)cc(OC)c1OC (stereo not drawn)
Result string: 8.54 µM

Query string: Request - read-out TGI | tested on SK-OV-3 ovarian | compound `CC(=O)Nn1c(Cc2ccc(Cl)cc2)nn(C)c1=O`
Result string: > 100 µM

Query string: Which TGI is reported with SK-OV-3 ovarian for this entry: `CC(=O)c1ccc(NC(=O)C(=O)CC(=O)c2sc(-n3nc(-c4ccccc4)cc3-c3ccccc3)nc2C)cc1` ?
Result string: > 100 µM

Query string: API: value(readout=TGI, system=SK-OV-3 ovarian) for record `CN(C)C/C=C/C(=O)Nc1ccc(C(=O)Nc2cccc(Nc3ncc(Cl)c(-c4c[nH]c5ccccc45)n3)c2)cc1`
Result string: > 100 µM
